Reference source for all entries: ChEMBL document CHEMBL3875147

- Test system: Staphylococcus aureus
- TEST: Antibacterial activity against Staphylococcus aureus ATCC 25923 incubated for 18 to 24 hrs by micro-dilution method
- Assay type: functional

{"columns": ["SMILES_ENTRY", "MIC / µM"],
 "data": [
  ["O=C(OCc1cn(-c2ccc(F)c(Cl)c2)nn1)c1cn(C2CC2)c2cc(N3CCN(Cc4cn(-c5ccc(F)c(Cl)c5)nn4)CC3)c(F)cc2c1=O", 8.33],
  ["Cc1ccc(-n2cc(COC(=O)c3cn(C4CC4)c4cc(N5CCN(Cc6cn(-c7ccc(C)cc7Cl)nn6)CC5)c(F)cc4c3=O)nn2)c(Cl)c1", 4.21],
  ["CC(=O)c1ccc(-n2cc(COC(=O)c3cn(C4CC4)c4cc(N5CCN(Cc6cn(-c7ccc(C(C)=O)cc7)nn6)CC5)c(F)cc4c3=O)nn2)cc1", 2.14],
  ["O=C(OCc1cn(-c2ccc([N+](=O)[O-])cc2)nn1)c1cn(C2CC2)c2cc(N3CCN(Cc4cn(-c5ccc([N+](=O)[O-])cc5)nn4)CC3)c(F)cc2c1=O", 4.25],
  ["O=C(OCc1cn(-c2cccc(Cl)c2Cl)nn1)c1cn(C2CC2)c2cc(N3CCN(Cc4cn(-c5cccc(Cl)c5Cl)nn4)CC3)c(F)cc2c1=O", 3.99],
  ["CCCCCc1ccc(-n2cc(COC(=O)c3cn(C4CC4)c4cc(N5CCN(Cc6cn(-c7ccc(CCCCC)cc7)nn6)CC5)c(F)cc4c3=O)nn2)cc1", 63.6],
  ["O=C(OCc1cn(-c2ccccc2)nn1)c1cn(C2CC2)c2cc(N3CCN(Cc4cn(-c5ccccc5)nn4)CC3)c(F)cc2c1=O", 38.7],
  ["O=C(OCc1cn(-c2cccc(Cl)c2)nn1)c1cn(C2CC2)c2cc(N3CCN(Cc4cn(-c5cccc(Cl)c5)nn4)CC3)c(F)cc2c1=O", 1.09],
  ["O=C(OCc1cn(-c2ccc(Cl)cc2)nn1)c1cn(C2CC2)c2cc(N3CCN(Cc4cn(-c5ccc(Cl)cc5)nn4)CC3)c(F)cc2c1=O", 2.19],
  ["C#CCOC(=O)c1cn(C2CC2)c2cc(N3CCN(CC#C)CC3)c(F)cc2c1=O", 1.92],
  ["O=C(OCc1cn(-c2ccc(F)cc2F)nn1)c1cn(C2CC2)c2cc(N3CCN(Cc4cn(-c5ccc(F)cc5F)nn4)CC3)c(F)cc2c1=O", 4.35],
  ["O=C(OCc1cn(-c2ccc(Cl)cc2Cl)nn1)c1cn(C2CC2)c2cc(N3CCN(Cc4cn(-c5ccc(Cl)cc5Cl)nn4)CC3)c(F)cc2c1=O", 3.99],
  ["O=C(OCc1cn(-c2ccc(Br)cc2)nn1)c1cn(C2CC2)c2cc(N3CCN(Cc4cn(-c5ccc(Br)cc5)nn4)CC3)c(F)cc2c1=O", 1.94],
  ["CCc1ccc(-n2cc(COC(=O)c3cn(C4CC4)c4cc(N5CCN(Cc6cn(-c7ccc(CC)cc7)nn6)CC5)c(F)cc4c3=O)nn2)cc1", 142],
  ["COc1ccccc1-n1cc(COC(=O)c2cn(C3CC3)c3cc(N4CCN(Cc5cn(-c6ccccc6OC)nn5)CC4)c(F)cc3c2=O)nn1", 35.4],
  ["O=C(OCc1cn(-c2ccccc2Cl)nn1)c1cn(C2CC2)c2cc(N3CCN(Cc4cn(-c5ccccc5Cl)nn4)CC3)c(F)cc2c1=O", 8.75]
]}
